The entries below come with measured PT values attached.
species on record: Rattus norvegicus; assay: Open TG-GATES - Regimen: Single; format: toxicity, organism-based, Sprague-Dawley; set-up: regimen Single, gender Male, age 6 weeks; details: in vivo, po, 0 mg/kg, 6 h, tissue Blood, route gavage, dose level Control
The reply should contain only the number, in s.

The following compounds have reported results that may help.
The recorded PT for entry CC(S)C(=O)NCC(=O)O (stereo not drawn) equals 15.8

The measured PT associated with CN(CCOc1ccc(CC2SC(=O)NC2=O)cc1)c1ccccn1.O=C(O)/C=C\C(=O)O (stereo not drawn) [ROSIGLITAZONE MALEATE] reads 12.2

# PT (compound: CN(C)CCCN1c2ccccc2Sc2ccc(Cl)cc21 ) is 12.5

Query COc1ccc([C@@H]2Sc3ccccc3N(CCN(C)C)C(=O)[C@@H]2OC(C)=O)cc1 yields PT of 14.5

In plain terms, CN(C/C=C/C#CC(C)(C)C)Cc1cccc2ccccc12 has a documented PT of 12

Consider Nc1ccc(Cc2ccc(N)cc2)cc1 . Its measured PT is 11.6

# PT (compound: O=C(O)c1ccccc1Nc1ccccc1 ) is 13.9

// recorded PT for CCCCNC(=O)NS(=O)(=O)c1ccc(C)cc1 [TOLBUTAMIDE] : 13.1

Further cases:
PT reported for this compound CCO : 11.8

====

species: Rattus norvegicus; test: Open TG-GATES - Regimen: Single; format: toxicity, organism-based, Sprague-Dawley; parameters: regimen Single, gender Male, age 6 weeks; conditions: in vivo, po, 0 mg/kg, 3 h, tissue Plasma, route gavage, dose level Control
Recorded Endpoint: ALP (IU/L)
# unit: IU/L | format: bare number

Examples with answers:
In plain terms, CCO has a documented ALP of 951

Record CN(CCOc1ccc(CC2SC(=O)NC2=O)cc1)c1ccccn1.O=C(O)/C=C\C(=O)O (stereo not given) [ROSIGLITAZONE MALEATE] . Reported ALP: 1326.2

The measured ALP associated with CCCCNC(=O)NS(=O)(=O)c1ccc(C)cc1 [TOLBUTAMIDE] reads 1445.2

The reported ALP of the compound O=C(O)c1ccccc1Nc1ccccc1 was 1511

Item: CN(C)CCCN1c2ccccc2Sc2ccc(Cl)cc21 | ALP: 1021.8

Noted for CCN(CC)C(=S)SSC(=S)N(CC)CC : its ALP reads 1602.8

Others:
Per the record, CC(S)C(=O)NCC(=O)O (stereo not given) has ALP of 2032.2

For record NS(=O)(=O)c1cc(C(=O)O)c(NCc2ccco2)cc1Cl [FUROSEMIDE] the listed ALP is 1448.8

Record CC(=O)[C@@]1(O)CC[C@H]2[C@@H]3C=C(Cl)C4=CC(=O)CC[C@]4(C)[C@H]3CC[C@@]21C , field ALP: 1607

// ALP value for CN(C/C=C/C#CC(C)(C)C)Cc1cccc2ccccc12 : 1027

Reported ALP of C=C[C@H]1C[N@@]2CC[C@H]1C[C@@H]2[C@@H](O)c1ccnc2ccc(OC)cc12 : 1497.8

Briefly, ALP measured for COc1cc2ncnc(Nc3ccc(F)c(Cl)c3)c2cc1OCCCN1CCOCC1 : 1581.8

====

organism: Rattus norvegicus; assay: Open TG-GATES - Regimen: Single; format: toxicity, organism-based, Sprague-Dawley; set-up: regimen Single, gender Male, age 6 weeks; conditions: in vivo, po, 0 mg/kg, 3 h, tissue Blood, route gavage, dose level Control
Recorded Endpoint: WBC (x10_2/uL)
Give your result in x10_2/uL as a bare value.

Observe how each entry below is paired with its result.
// recorded WBC for O=C(O)c1ccccc1Nc1ccccc1 : 95.4

For this molecule ( CN(C/C=C/C#CC(C)(C)C)Cc1cccc2ccccc12 ), measured WBC is 116.5

The reported value for CC(=O)[C@@]1(O)CC[C@H]2[C@@H]3C=C(Cl)C4=CC(=O)CC[C@]4(C)[C@H]3CC[C@@]21C in terms of WBC is 78.7

# next molecule below
Form: molecule = Nc1ccc(Cc2ccc(N)cc2)cc1 ; WBC = 100
